System: EKVX NSCLC
Assay: NCI tumour cell line growth inhibition, 48 h
reported_metric: GI50

>>> reported_value("O=C(Nc1cc(C(F)(F)F)ccc1Cl)c1ccc(NC2=C(Cl)C(=O)N(Cc3ccccc3)C2=O)cc1")
"46.6 µM"
>>> reported_value("COC(=O)c1cc2c3ccccc3n3c(=O)c4cc5ccc(N(S(=O)(=O)c6ccc(C)cc6)S(=O)(=O)c6ccc(C)cc6)cc5nc4c(n1)c23")
"53.6 µM"

molecule COc1ccc(-c2cs/c(=N\N=C\c3ccc(O)cc3O)n2/N=C/c2ccc(O)cc2O)cc1 , GI50 observed: 2.32 µM

Entry under test: O=S(=O)(NCCNc1nccc(-c2c(-c3ccc(F)c(O)c3)nc3sccn23)n1)c1ccc(F)cc1 . Its GI50 was 5.42 µM

GI50 in this record for CCC[CH2][Sn]([Cl])([Cl])[CH2]CCC : 0.848 µM

Value of GI50 reported for the molecule COc1cc2c(c(OC)c1OC)-c1ncc3c(OC)c(OC)c(OC)cc3c1C2 is 32.7 µM

# credit: PubChem BioAssay (NCI)
